// values below are reported melting point

# compound, melting point [°C]
data = [
    ("CC(C)CCn1ccc(N2CCC(CCOc3ccc(F)cc3)CC2)c(C#N)c1=O [4-019]", 100),
    ("CC(C)CCn1ccc(-c2ccc(C(C)(C)C)cc2)c(C#N)c1=O [1-086]", 168),
    ("COc1ccccc1-c1ccn(CC2CCCCC2)c(=O)c1C#N [1-011]", 60),
    ("CC(C)CCn1ccc(N2CCc3c(n(C)c4ccc(F)cc34)C2)c(C#N)c1=O [5-040]", 111),
    ("Cc1ccc(Cn2ccc(-c3ccco3)c(C#N)c2=O)cc1 [1-018]", 155),
    ("CC(C)CCn1ccc(-c2ccc(C(=O)NCc3ccncc3)cc2)c(C#N)c1=O [1-213]", 96),
    ("CC(=O)N(C)Cc1ccc(-c2ccn(CCC(C)C)c(=O)c2C#N)cc1 [1-177]", 112),
    ("COc1cccc(Oc2ccc(-c3ccn(CCC(C)C)c(=O)c3C#N)cc2)c1 [1-143]", 118),
    ("CC(C)CCn1ccc(N2CCN(Cc3ccc(OC(F)(F)F)c(Cl)c3)CC2)c(C#N)c1=O [2-022]", 256),
]
